B1: HEEH_KT_rd6_3546 (parent)
chain: SEEDKEREHWERLNRDFELRVLDTTFIAHHAEEVIKLLRWLEK

- Variants of: B1
- EXPERIMENTAL_PROTOCOL: folding stability dG (cDNA display proteolysis); higher = more stable
- PROTOCOL_CONDITIONS: PBS, room temperature
So I've got a bunch of variants here, and I need their folding stability dG values.
Give a bare numeral; the unit kcal/mol is implied.

Short answer for K43H : folding stability dG was 1.17

Short answer for E6W : folding stability dG was 1.8

Short answer for R15Q : folding stability dG was 1.08

Short answer for E2W : folding stability dG was 1.57

Short answer for L19T : folding stability dG was 0.795

Short answer for R15E : folding stability dG was 1.23

Short answer for K5W : folding stability dG was 1.67

Short answer for E32N : folding stability dG was 1.26

Short answer for F17V : folding stability dG was 0.83

Short answer for T24H : folding stability dG was 1.13

Short answer for L37K : folding stability dG was 0.138
